system: platelet aggregation (platelet-rich plasma); test: Antithrombotic activity: inhibition of collagen-induced platelet aggregation in platelet-rich plasma (Born and Cross); type: cell-based, human (healthy volunteers); conditions: 50% change in optical density, human platelet-rich plasma, 10 min preincubation
reported_metric: EC50 (µM)

| molecule | assayed_system | EC50 / µM |
| --- | --- | --- |
| NCc1ccc(-c2nc3cc(C(=O)NCCC(=O)O)ccc3n2CCCN2CCSCC2)cc1 | platelet aggregation (platelet-rich plasma) | 7 |
| N=C(N)c1ccc(-c2nc3cc(C(=O)NCCC(=O)O)ccc3n2CCCC(=O)O)cc1 | platelet aggregation (platelet-rich plasma) | 3.6 |
| CNc1cc2c(cc1C(=O)NCCC(=O)O)nc(-c1ccc(C(=N)N)cc1)n2C | platelet aggregation (platelet-rich plasma) | 1.5 |

I: Cn1c(-c2ccc(C(=N)N)cc2)nc2cc(C(=O)N3CCCC(C(=O)O)C3)ccc21 (stereo not shown)
II: COC(=O)CCNC(=O)c1ccc2c(c1)nc(-c1ccc(C(=N)N)cc1)n2CCCCc1ccccc1
III: N=C(N)c1ccc(-c2nc3cc(C(=O)NCCC(=O)O)ccc3n2CCc2cc(Br)c(N)c(Br)c2)cc1
IV: COC(=O)CCNC(=O)c1ccc2c(c1)nc(-c1ccc(C(=N)N)cc1)n2CCCN1CC[S+]([O-])CC1
V: COc1ccc(CCn2c(-c3ccc(C(=N)N)cc3)nc3cc(C(=O)NCCC(=O)O)ccc32)cc1OC
Request: # rank_down: sort by EC50, max first Reply with the labels, ordered as the question asks.
Response: IV, I, II, III, V

a: CNc1cc2c(cc1C(=O)NCCC(=O)OC)nc(-c1ccc(C(=N)N)cc1)n2C [3(123), acetate]
b: N=C(N)c1ccc(-c2nc3cc(C(=O)NCCC(=O)O)ccc3n2CCCN2CCSCC2)cc1
c: COc1ccc(CCn2c(-c3ccc(CN)cc3)nc3cc(C(=O)NCCC(=O)O)ccc32)cc1OC
Request: In this exercise, place the 3 molecules in ascending sequence of their recorded EC50. Reply with the labels, ordered as the question asks.
Response: b, c, a
(b: 0.16 µM, c: 2.13 µM, a: 12 µM)

----------
system: platelet aggregation (platelet-rich plasma); assay: Antithrombotic activity: inhibition of collagen-induced platelet aggregation in platelet-rich plasma (Born and Cross); assay type: cell-based, human (healthy volunteers); conditions: 50% change in optical density, human platelet-rich plasma, 10 min preincubation
Structures can show the parent of a compound that is named as a salt.
reported_metric: EC50 (nM)

P: N=C(N)c1ccc(-c2nc3cc(C(=O)NCCC(=O)OC4CCCCC4)ccc3n2CCCCc2ccccc2)cc1 [13(3), dihydrochloride]
Q: CCCCCCCCCCCCCCn1c(-c2ccc(C(=N)N)cc2)nc2cc(C(=O)NCCC(=O)O)ccc21 [17(6)]
R: Cn1c(-c2ccc(C(=N)N)cc2)nc2c(=O)n(CCCCC(=O)O)c(=O)n(C)c21 [1(160)]
Request: Put the items in order so that reported EC50 rises from first to last. Reply with the labels, ordered as the question asks.
Response: R, P, Q

----------
molecular target: Human Thrombocytes; test: Fibrinogen binding to human thrombocytes (fibrinogen binding test); settings: *: 125I fibrinogen replaced by 3H-(3S,5S)-5-[(amidino-biphenylyl)-oxymethyl]-carboxymethyl-pyrrolidinone ligand; read-out: Fibrinogen binding test IC50 (values marked *)
reported_metric: IC50 (µM)

| smiles_text | value_units | reported |
| --- | --- | --- |
| CCCCCCCCCCCCCCn1c(-c2ccc(C(=N)N)cc2)nc2cc(C(=O)NCCC(=O)OC)ccc21 | µM | 4.6 |

1: N=C(N)c1ccc(-c2nc3cc(C(=O)NCCC(=O)O)ccc3n2CCCC(=O)O)cc1
2: COC(=O)CCNC(=O)c1ccc2c(c1)nc(-c1ccc(C(=N)N)cc1)n2CCCCc1ccccc1
3: N=C(N)c1ccc(-c2nc3cc(C(=O)NCCC(=O)O)ccc3n2CCCCc2ccccc2)cc1
4: COC(=O)CCNC(=O)c1ccc2c(c1)nc(-c1ccc(C(=N)N)cc1)n2Cc1ccccc1
5: COC(=O)CCNC(=O)c1ccc2c(c1)nc(-c1ccc(C(=N)N)cc1)n2CCCN1CC[S+]([O-])CC1
Request: In this exercise, place the 5 molecules in ascending sequence of their recorded IC50. Reply with the labels, ordered as the question asks.
Response: 3, 1, 2, 4, 5
